Source of measurements: ChEMBL document CHEMBL1773004

Please provide measured log10 of EC50 for the entries that follow.
- assay_system: Metabotropic glutamate receptor 2 (Rattus norvegicus)
- Sequence (P31421 whole entry): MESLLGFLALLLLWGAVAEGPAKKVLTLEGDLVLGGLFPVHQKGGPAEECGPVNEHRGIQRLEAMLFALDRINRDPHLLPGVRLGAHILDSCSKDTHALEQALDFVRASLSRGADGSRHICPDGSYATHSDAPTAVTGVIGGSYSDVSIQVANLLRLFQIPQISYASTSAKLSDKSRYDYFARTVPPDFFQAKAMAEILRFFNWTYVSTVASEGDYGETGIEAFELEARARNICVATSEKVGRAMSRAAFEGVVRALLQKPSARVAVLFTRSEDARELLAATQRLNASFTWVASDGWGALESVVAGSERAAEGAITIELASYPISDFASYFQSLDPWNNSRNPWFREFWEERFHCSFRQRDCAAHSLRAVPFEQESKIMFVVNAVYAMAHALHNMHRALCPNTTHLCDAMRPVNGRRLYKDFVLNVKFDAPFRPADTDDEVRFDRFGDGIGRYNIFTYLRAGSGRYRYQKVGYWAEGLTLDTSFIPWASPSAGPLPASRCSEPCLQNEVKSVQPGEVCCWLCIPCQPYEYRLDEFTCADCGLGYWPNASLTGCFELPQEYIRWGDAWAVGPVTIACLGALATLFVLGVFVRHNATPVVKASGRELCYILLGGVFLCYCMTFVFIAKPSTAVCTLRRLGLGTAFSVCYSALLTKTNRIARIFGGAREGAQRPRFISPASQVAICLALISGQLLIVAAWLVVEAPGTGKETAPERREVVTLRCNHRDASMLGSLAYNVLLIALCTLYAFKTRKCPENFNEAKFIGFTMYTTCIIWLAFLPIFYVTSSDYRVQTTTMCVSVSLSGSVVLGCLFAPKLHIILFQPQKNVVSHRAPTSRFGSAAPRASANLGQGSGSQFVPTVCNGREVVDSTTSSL
- procedure_summary: Positive allosteric modulation of rat mGluR2 expressed in HEK293 cells co-expressing Galpha15 G protein assessed as increase in glutamate-induced intracellular calcium release by FLIPR assay
The figures below represent log10 of EC50, where EC50 is stated in nM.

Dear colleague, could you send me log10 of EC50 for each of the items below? Thanks.
1. Cn1c(CN2[C@@H]3CC[C@H]2CC(c2ccc(C(F)(F)F)cc2)C3)nc2ncccc21 (stereo partly specified)
2. Cn1c(CN2CCC(c3ccc(C(F)(F)F)cc3)CC2)nc2cnccc21
3. Cn1c(CN2CCC(c3ccccc3C(F)(F)F)CC2)nc2ccccc21
4. Cn1c(CN2CCC(c3ccccc3)CC2)nc2ccccc21
5. Cn1c(CN2CC[C@@H](c3ccc(C(F)(F)F)cc3)C(C)(C)C2)nc2ncccc21
6. Cn1c(CN2CCC(c3ccc(C(F)(F)F)cc3F)CC2)nc2ncccc21
7. Cn1c(CN2CCC(c3cccc(F)c3)CC2)nc2ccccc21
8. COc1cc(C(F)(F)F)ccc1[C@H]1CCN(Cc2nc3ncccc3n2C)C[C@H]1C

[out]
1: 2.26; 2: 2.23; 3: 2.04; 4: 2.33; 5: 2.87; 6: 1.40; 7: 3.52; 8: 2.90
